assay: Cell viability, CCK-8; assay type: cell-based, Human; conditions: human, EA.hy926 cells, concentration above 600 µg/mL (up to 1000 µg/mL)
Peptide text beside a SMILES is read from it.
endpoint.label: viability at 24 h

Consider the compound CC(C)C[C@H](NC(=O)[C@H](Cc1ccc(O)cc1)NC(=O)[C@H](CC(=O)O)NC(=O)[C@H](CC(N)=O)NC(=O)[C@@H](N)C(C)C)C(=O)N[C@@H](CC(N)=O)C(=O)N[C@@H](Cc1c[nH]c2ccccc12)C(=O)O [VNDYLNW] (H-VNDYLNW-OH) and give its measured viability at 24 h. < 80%
